ASSAY COMMENT: activity coefficient (dimensionless); of the first substance listed, at infinite dilution; xn = mol fraction of the nth substance listed
REPORTED CONDITIONS: 358.15 K; 100 kPa; Liquid; Chromatography; x1 = 0
MEASURED PROPERTY: activity coefficient

COMPOUND | RESULT
C1CCCCC1 [cyclohexane] + CCCC[P+](CC)(CCCC)CCCC.CCOP(=O)([O-])OCC | 2.05
CC(C)CC(C)(C)C [2,2,4-trimethylpentane] + CCCC[P+](CC)(CCCC)CCCC.CCOP(=O)([O-])OCC | 4.05
C#CCCCCCC [1-octyne] + CCCC[P+](CC)(CCCC)CCCC.CCOP(=O)([O-])OCC | 1.33
CCc1ccccc1 [ethylbenzene] + CCCC[P+](CC)(CCCC)CCCC.CCOP(=O)([O-])OCC | 1.46
Cc1cccc(C)c1 [1,3-dimethylbenzene] + CCCC[P+](CC)(CCCC)CCCC.CCOP(=O)([O-])OCC | 1.61
CCOC(C)(C)C [2-ethoxy-2-methylpropane] + CCCC[P+](CC)(CCCC)CCCC.CCOP(=O)([O-])OCC | 2.51
